B1: FBXO39 (parent)
chain: RVFKARIYTNRYETNEEDKTLQEI

- Variants of: B1
- method description: protein stability index of a GFP-peptide fusion (GPS, HEK-293T) (PSI 1-6); higher = more stable;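 also: lentivirally expressed fusions sorted by FACS into six bins by GFP to DsRed ratio, PSI derived from sequencing read proportions per bin multiplied by bin number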
- test parameters: c terminus: a fixed tail appended
Listed here are variants together with their documented protein stability index.
Just the number, please, no unit after it.

# chain sequence, protein stability index
rows = [
    ("RVFKRRIYTNRYETNEEDKTLQEI", 3.49),
    ("RVFKARIYTNQYETNEEDKTLQEI", 3.2),
    ("RVFKARIYLNRYETNEEDKTLQEI", 2.54),
    ("RVFKARILTNRYETNEEDKTLQEI", 3.21),
    ("RVFKARIYTNRYETWEEDKTLQEI", 2.61),
]

Task item: Report protein stability index for RVFKARIYTNRYELNEEDKTLQEI please.
Reply: 3.06

Task item: Report protein stability index for RVFKARIYTNRYESNEEDKTLQEI please.
Reply: 3.12
